System: RS4;11 cells (wild-type p53)
Protocol Summary: Cytotoxicity test of BW-AQ-365 (CCK-8) in RS4;11 cells
Type: cell-based
Measurement Context: Homo sapiens, RS4-11, 72 h, RS4; 11, 25000 cells/well, 72 h
Description: Cell viability was assessed by using Cell Counting Kit-8 (CCK-8, Dojindo, Japan). RS4;11 cells (wild-type p53) were cultured in RPMI-1640 medium (Corning, USA). […] After incubation for 24-72 h at 37° C. in a humidified atmosphere with 5% CO2, 10 μL of CCK-8 solution was added to each well, and the plate was incubated for an additional 2-4 h at 37° C. before measuring the optical density at 450 nm with a microplate reader (PerkinElmer Victor 2, USA). […]
Endpoint: IC50 (µM)
Supply the numeric figure in µM, leaving out any unit text.

Qu. Quick one: IC50 for CC(=O)CCCOc1cccc2c1C(=O)c1c(OCCCC(C)=O)cc(NC(=O)CN=[N+]=[N-])cc1C2=O [BW-AQ-365] ?
Ans. 5.5

----------
Tested on: MCF7 cells
Protocol Summary: Cytotoxicity test (CCK-8) in MCF7 cells
Type: cell-based
Measurement Context: Homo sapiens
Endpoint: pIC50
Note on pIC50: it is the negative log10 of concentration, concentration in mol/L.

* CC(=O)CCCOc1cccc2c1C(=O)c1c(OCCCC(C)=O)cc(NC(=O)CCl)cc1C2=O | 6.02

Here is the next item to consider.
Qu. Quick one: pIC50 for "C#CC(=O)Nc1cc(OCCCC(C)=O)c2c(c1)C(=O)c1cccc(OCCCC(C)=O)c1C2=O" ?
Ans. 5.31

----------
Tested on: H9c2 cells
Protocol Summary: Cytotoxicity test (CCK-8) in H9c2 cells
Format: cell-based
Measurement Context: Rattus norvegicus
Endpoint: pIC50
Note on pIC50: it is the negative log10 of concentration, concentration in mol/L.

Qu. Quick one: pIC50 for CC(=O)CCCOc1cccc2c1C(=O)c1c(OCCCC(C)=O)cc(NC(=O)CCl)cc1C2=O [BW-AQ-295] ?
Ans. 5.95

Ref: patent US20260257987A1
